# Test system: MDA-MB-435 melanoma
# method: NCI-60 one-dose screen, 48 h
# conditions: 10 µM unless noted
About 83,000 compounds went through this panel and 20% of them were active in at least one assay; those are over-represented in the sample as a whole. Active and inactive are the calls of the source. How the source made its calls: active means growth percent below 10; inactive means the rest.
Outcome codes: true (active), false (inactive)

- compound: "CN1CCN(c2ccc(/C=C/C(=O)c3ccc(O)cc3)cc2)CC1"
  classLabel: "false"
- compound: "Cn1cc(-c2csc(-c3c[nH]c4ccc(F)cc34)n2)c2cnccc21"
  classLabel: "true"
- compound: "COc1ccc2c(c1)CC[C@@H]1[C@@H]2CC[C@]2(C)C3C(=CCC4C(=O)N(c5ccccc5)C(=O)C43)C[C@@H]12 (some centres undefined)"
  classLabel: "false"
- compound: "CN(C)CCCn1c2c(c3ccc(N4CCNCC4)cc3c1=O)C(=O)c1ccccc1-2"
  classLabel: "false"
- compound: "COc1cc(-c2nn(-c3cccc(NC(=O)CCN4CCN(C)CC4)c3)cc2-c2ccncc2)ccc1Cl"
  classLabel: "true"
- compound: "COC(=O)N/N=C/c1c[n+]([O-])c2ccccc2[n+]1[O-]"
  classLabel: "false"
- compound: "COc1cc2nc3cc([N+](=O)[O-])ccc3c(NCCNCC(C)(C)O)c2cc1OC"
  classLabel: "true"
- compound: "NS(=O)(=O)c1ccc(C(=O)N=Nc2c(O)[nH]c3c(F)cccc23)cc1"
  classLabel: "false"
- compound: "COC(=O)/C=C1/SC(N2N=C(c3cccs3)CC2c2ccc(F)cc2)=NC1=O (centres undefined)"
  classLabel: "false"
- compound: "CCCCCO/N=C\\c1c2c(O)c3c(O)c(C)c4c(c3c1O)C(=O)C(C)(O/C=C\\C(OC)C(C)C(OC(C)=O)C(C)C(O)C(C)C(O)C(C)/C=C\\C=C(\\C)C(=O)N2)O4 (centres undefined)"
  classLabel: "false"
- compound: "[2H]C([2H])([2H])Oc1cc(F)ccc1/C=C/C(=O)/C=C(/C=C/c1ccc(F)cc1OC([2H])([2H])[2H])OB(F)F"
  classLabel: "false"
- compound: "N#CC(Cc1cccc2ccccc12)c1cc2ccccc2[nH]1 (centres undefined)"
  classLabel: "false"
- compound: "CCOC(=O)c1cnn(-c2ccc(S(N)(=O)=O)cc2)c1N"
  classLabel: "false"
- compound: "C=C(C)[C@@H]1CC[C@]2(C(=O)O)CC[C@]3(C)[C@H](CC[C@@H]4[C@@]5(C)CCC(N)C(C)(C)[C@@H]5CC[C@]43C)[C@@H]12 (some centres undefined)"
  classLabel: "true"
- compound: "COc1ccc2c(O)c(/C=C3\\N=Nc4nc(C)ccc43)oc2c1CC1CCNCC1"
  classLabel: "false"
- compound: "O=C1C(=C(O)c2ccccc2)C(=O)c2ccccc21"
  classLabel: "false"
- compound: "COc1ccc(-c2cc3cnc4ccccc4c3oc2=O)cc1"
  classLabel: "false"
- compound: "N=C(N)c1ccc(-c2ccc(-c3ccc(Cl)c(Cl)c3)s2)cc1"
  classLabel: "false"
- compound: "COc1ccc2c(c1)c(C(=O)c1nc(-c3cn(C)c4ccccc34)no1)cn2C"
  classLabel: "false"
